Molecular target: human TGR5 receptor (Homo sapiens)
Sequence (Q8TDU6 whole entry): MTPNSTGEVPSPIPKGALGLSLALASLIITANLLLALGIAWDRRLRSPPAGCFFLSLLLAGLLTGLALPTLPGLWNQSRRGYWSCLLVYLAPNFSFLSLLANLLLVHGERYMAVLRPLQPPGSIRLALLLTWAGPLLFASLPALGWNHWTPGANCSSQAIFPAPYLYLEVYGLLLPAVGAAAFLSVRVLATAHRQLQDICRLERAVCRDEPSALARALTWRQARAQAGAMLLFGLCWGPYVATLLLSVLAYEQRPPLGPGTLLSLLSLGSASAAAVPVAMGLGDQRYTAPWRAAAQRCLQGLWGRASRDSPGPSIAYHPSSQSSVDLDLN
Experiment: Human TGR5 cAMP production assay (hTGR5-CHO cells, DiscoveRx cAMP XS+ kit)
Details: luminescent cAMP assay, read-out: Human TGR5 Lum. cAMP Activity (EC50)
Quantity measured: EC50

1. COCC1CCN(c2cc(N3CC[C@H]3C(=O)NCCc3ccc(C#N)cc3)nc(C(F)(F)F)n2)CC1 [Compound 222]: < 100 nM
2. N#Cc1ccc(CCNC(=O)[C@@H]2CCN2c2cc(N3CCC(CCCC(=O)O)CC3)nc(C(F)(F)F)n2)cc1 [Compound 231]: < 100 nM
3. CC(C)(C)OC(=O)N1CCC(Oc2cc(N3CC[C@H]3C(=O)NCCc3ccc(C#N)cc3)nc(C(F)(F)F)n2)CC1 [Compound 243]: 100 to 999 nM
4. O=C(O)CCNC(=O)NCCC1CCN(c2cc(N3CCC[C@H]3C(=O)NCCc3ccc(-c4ccncc4)cc3)nc(C(F)(F)F)n2)CC1 [Compound 376]: 100 to 999 nM
5. Cn1ccc2cc(-c3cc(N4CCC[C@H]4C(=O)NCCc4ccc(C#N)cc4)nc(C(F)(F)F)n3)ccc21 [Compound 169]: 1000 to 30000 nM
6. N#Cc1ccc(CCNC(=O)[C@@H]2CCN2c2cc(N3CCC(CCNc4c(NCC(=O)O)c(=O)c4=O)CC3)nc(C(F)(F)F)n2)cc1 [Compound 302]: < 100 nM
7. N#Cc1ccc(CCNC(=O)[C@@H]2CCCN2c2cc(N3CCC(CCNc4c(NCP(=O)(O)O)c(=O)c4=O)CC3)nc(C(F)(F)F)n2)cc1 [Compound 369]: < 100 nM
8. N#Cc1ccc(CCNC(=O)[C@@H]2CCN2c2cc(N3CCC(CCC(=O)NCCS(=O)(=O)O)CC3)nc(C(F)(F)F)n2)cc1 [Compound 262]: < 100 nM
9. N#Cc1ccc(CCNC(=O)[C@@H]2CCCN2c2cc(-c3ccc(CN)cc3)nc(C(F)(F)F)n2)cc1 [Compound 185]: 100 to 999 nM
10. N#Cc1ccc(CCNC(=O)[C@@H]2CCCN2c2cc(-c3ccc(COCC(=O)NCS(=O)(=O)O)cc3)cc(C(F)(F)F)n2)cc1 [Compound 209]: < 100 nM
11. CCOC(=O)CCNC(=O)NCCC1CCN(c2cc(N3CC[C@H]3C(=O)NCCc3ccc(C#N)cc3)nc(C(F)(F)F)n2)CC1 [Compound 267]: < 100 nM
12. O=C(NCCC1CCN(c2cc(N3CCC[C@H]3C(=O)NCCc3ccc(C(F)(F)F)cc3)nc(C(F)(F)F)n2)CC1)NCCS(=O)(=O)O [Compound 86]: < 100 nM
13. N#Cc1ccc(CCNC(=O)[C@@H]2CCCN2c2cc(N3CCC(CCNc4c(NCCS(=O)(=O)NCC(=O)O)c(=O)c4=O)CC3)nc(C(F)(F)F)n2)cc1 [Compound 370]: < 100 nM
14. N#Cc1ccc(CCNC(=O)[C@@H]2CCCN2c2cc(-c3cccnc3)nc(C(F)(F)F)n2)cc1 [Compound 142]: 1000 to 30000 nM
15. CC(C)(C)OC(=O)N1CCC(Nc2cc(N3CCC[C@H]3C(=O)NCCc3ccc(C#N)cc3)nc(C(F)(F)F)n2)CC1 [Compound 15]: 1000 to 30000 nM
16. N#Cc1ccc(CCNC(=O)[C@@H]2CCCN2c2cc(N3CCC(CCCC(=O)NCCN)CC3)nc(C(F)(F)F)n2)cc1 [Compound 92]: < 100 nM
17. N#Cc1ccc(CCNC(=O)[C@@H]2CCN2c2cc(N3CCC(CCNC(=O)NCCOCCNC(=O)CS(=O)(=O)O)CC3)nc(C(F)(F)F)n2)cc1 [Compound 356]: < 100 nM
18. N#Cc1ccc(CCNC(=O)[C@@H]2CCN2c2cc(N3CCC(CCO)CC3)nc(C(F)(F)F)n2)cc1 [Compound 223]: < 100 nM
19. N#Cc1ccc(CCNC(=O)[C@@H]2CCCN(c3cc(N4CCN(CCOCCO)CC4)nc(C(F)(F)F)n3)C2)cc1 [Compound 314]: 100 to 999 nM
20. N#Cc1ccc(CCNC(=O)[C@@H]2CCCN2c2cc(-c3ccsc3)nc(C(F)(F)F)n2)cc1 [Compound 158]: 100 to 999 nM
